Hey, just so you know, these numbers are from PubChem BioAssay (NCI).

Below is a list of entries, each paired with its recorded TGI value.
# System: DMS 273 small cell lung
# protocolNotes: NCI tumour cell line growth inhibition, 48 h
recordedMetric: TGI

>>> measurement("C[C@]12CC(C#N)C(=O)C(O)=C1CC[C@@H]1C2CC[C@@]2(C)C1CC[C@@H]2O (stereo partly specified)")
"> 100 µM"
>>> measurement("CC(C)Cc1ccc(C(C)/C=C2\\CCC(CN3CCCC3)C2=O)cc1 (stereo unspecified)")
"14.5 µM"
>>> measurement("S=P(c1ccccc1)(c1ccccc1)C1(C2(P(=S)(c3ccccc3)c3ccccc3)CC2)CC1")
"> 100 µM"
>>> measurement("CC1=C2C(=O)C(C)(C)C=C2C(=O)[C@](C)(O)C12CC2")
"> 0.464 µM"
>>> measurement("NC(Cc1c[nH]c2ccccc12)C(=O)O (stereo unspecified)")
"> 300 µM"
>>> measurement("CC([C@H]1CCC2C3CCC4CC5(CC[C@]4(C)C3CC[C@@]21C)c1ccccc1C(=O)N5C)N(C)C (stereo partly specified)")
"75.4 µM"
>>> measurement("CCN(CC)C(=O)CNC(=O)OC(C)(C)C")
"> 100 µM"
>>> measurement("CCC(O)(c1ccc(OC)cc1)C(c1ccc(OCc2ccccc2)cc1)c1ccc(OCc2ccccc2)cc1 (stereo unspecified)")
"> 100 µM"
>>> measurement("O=C(O)CCSC(=O)Nc1cccc([N+](=O)[O-])c1")
"> 100 µM"
>>> measurement("COc1cc2ccc(/C(C)=N/OC(C)=O)cc2cc1OC")
"> 100 µM"
>>> measurement("O=C1NC(=O)C(=O)C(c2nc3ccccc3s2)C1=O")
"> 100 µM"

* * *

# Test system: SK-MEL-2 melanoma
# protocolNotes: NCI tumour cell line growth inhibition, 48 h
Where a SMILES comes first, the peptide text is derived from it. [ ]: non-standard residue; d: D form. The star is where a group is joined. ξ: configuration not given here. Propanoyl(3-(4-MeO-Ph)) = COc1ccc(CCC(=O)*)cc1; Thr(3ξ) = CC(O)[C@H](N)C(=O)O; dNMeL = CN[C@H](CC(C)C)C(=O)O; OBn = c1ccc(CO*)cc1; ξLac = CC(O)C(=O)O
Below is a list of entries, each paired with its recorded TGI value.
recordedMetric: TGI

>>> measurement("O=c1ccccc(-c2ccc(-c3ccco3)cc2)c1O")
"44.2 µM"
>>> measurement("O=c1c(O)c(-c2cc(O)c(O)cc2O)oc2cc(O)c(C3OC(CO)C(O)C(O)C3O)c(O)c12 (centres undefined)")
"> 100 µM"
>>> measurement("CC1(C)CCC2(C(=O)O)CC[C@]3(C)C(=CCC4C5(C)CC[C@H](OC6OC(C(=O)O)C(O)C(OC7OC(CO)C(O)C(O)C7O)C6OC6OC(CO)C(O)C(O)C6O)C(C)(C)C5CCC43C)C2C1 (some centres undefined)")
"> 100 µM"
>>> measurement("CN(C)CCCn1c(-c2cc(C(C)(C)C)c(O)c(C(C)(C)C)c2)csc1=Nc1ccccc1")
"8.51 µM"
>>> measurement("O=CC1OC(=O)c2cc(O)c(O)c(O)c2-c2c(cc(O)c(O)c2O)C(=O)OC1C(O)C(O)CO (centres undefined)")
"> 100 µM"
>>> measurement("CCOP(=O)(OCC)/C(C#N)=C/c1cccn1N(C)C")
"> 100 µM"
>>> measurement("CC1C(c2ccc3c(c2)OCO3)c2cc3c(cc2OC1N1CCCCC1)OCO3 (centres undefined)")
"> 100 µM"
>>> measurement("N=C1C(c2nc3ccccc3s2)=C(O)CN1c1ccc(Cl)cc1Cl")
"96.6 µM"
>>> measurement("CCOC(=O)COc1c(OC)cc(C2C3=C(COC3=O)Oc3cc4c(cc32)OCO4)cc1OC (centres undefined)")
"> 100 µM"
>>> measurement("NC(Cc1c[nH]c2ccccc12)C(=O)O (centres undefined)")
"> 300 µM"
>>> measurement("CC1Cc2c(N)nc(N3CCOCC3)nc2NC1=O (centres undefined)")
"> 100 µM"
>>> measurement("CCOC(=O)c1cc(=O)oc2c1N(C)c1ncccc1N2")
"> 100 µM"
>>> measurement("NCCCc1c(-c2ccccc2)nc(N)[nH]c1=O")
"> 100 µM"
>>> measurement("O=C(COc1ccc(Cl)cc1)N1N=C(c2ccc([N+](=O)[O-])o2)CC1(O)c1ccccc1 (centres undefined)")
"21 µM"
>>> measurement("C/C=C1\\C(=O)O[C@@H]2C1C[C@@H]1O[C@H]2[C@H](C)CCC/C(C)=C/CC[C@@]1(C)O (some centres undefined)")
"13.2 µM"
>>> measurement("COc1cccc(-c2nc(-c3ccc(NC(=O)c4ccccc4)cc3)[nH]c2-c2ccnc(Br)c2)c1")
"> 100 µM"
>>> measurement("O=C1c2cccc3cc([N+](=O)[O-])cc(c23)C(=O)N1CCN1CCCC1")
"4.45 µM"
>>> measurement("COc1ccc(CCC(=O)OC(C)[C@H](NC(=O)[C@@H](CC(C)C)N(C)C(=O)[C@@H]2CCCN2C(=O)C(C)O)C(=O)OCc2ccccc2)cc1 (some centres undefined) (H-[ξLac]P[dNMeL][Thr(3ξ)](Propanoyl(3-(4-MeO-Ph)))-OBn)")
"36.9 µM"
>>> measurement("O=C1CC2C(=O)C1C(C(=O)O)C2C(=O)O (centres undefined)")
"> 100 µM"

* * *

# Test system: HOP-92 NSCLC
# protocolNotes: NCI tumour cell line growth inhibition, 48 h; in the data active = GI50 below about 0.43 µM; inactive = the rest
Possible outcomes: active, inactive

>>> classname("N/C(=N\\c1nc2ccccc2s1)NC(=O)Nc1ccccc1Cl")
"active"
>>> classname("CCN(CC)Cc1cc(Nc2ccnc3cc(Cl)ccc23)cc(-c2ccc(Cl)cc2)c1O")
"inactive"
>>> classname("C/C=C1\\C(=O)O[C@@H]2C1C[C@@H]1O[C@H]2[C@H](C)CCC/C(C)=C/CC[C@@]1(C)O (stereo not given in full)")
"inactive"
>>> classname("N#C/C(=C/C=C/c1ccccc1)S(=O)c1ccccc1 (stereo not given)")
"active"
>>> classname("CCC1CCCCN1C(=S)N/N=C(\\C)c1ccccn1 (stereo not given)")
"active"
>>> classname("C#Cc1cccc(Nc2ncnc3ccc(-c4cnc(Cl)c(NS(C)(=O)=O)c4)cc23)c1")
"active"
>>> classname("CCC(c1ccc(OC)cc1)C(CC)c1ccc(O)c(CN2CCCC2)c1 (stereo not given)")
"inactive"
>>> classname("NC(=O)c1cc(Cl)ccc1NC(=O)c1ccccc1-c1ccccc1")
"inactive"
>>> classname("Oc1ccc2ccccc2c1N=Nc1ccccn1")
"inactive"
>>> classname("Oc1cccc(Cn2c(-c3cccc(O)c3O)nc3ccccc32)c1O")
"inactive"

* * *

Below is a list of entries, each paired with its recorded TGI value.
# System: SNB-19 CNS
# protocolNotes: NCI tumour cell line growth inhibition, 48 h
recordedMetric: TGI

>>> measurement("COc1ccc2c(c1)CCCN1CCc3cc(OC)c(OC)cc3C21 (centres undefined)")
"> 100 µM"
>>> measurement("CC1(C)C(=O)C2(OS(=O)(=O)C(F)(F)F)CCC1C2 (centres undefined)")
"> 100 µM"
>>> measurement("CC(C)CC1[C@@H](OCc2ccccc2)COS(=O)(=O)N1Cc1ccccc1 (some centres undefined)")
"> 100 µM"
>>> measurement("CCc1n[nH]c(=O)n1NC(=O)c1ccccc1C(=O)O")
"> 100 µM"
>>> measurement("CC1=C(/C=C/C2=CC(=C\\C(=O)O)/CC(C3=C(C)CCCC3(C)C)C2)C(C)(C)CCC1 (centres undefined)")
"27.7 µM"
>>> measurement("C/C(=N\\NS(=O)(=O)c1ccc(C)cc1)c1c(O)cc(C)oc1=O")
"> 100 µM"
>>> measurement("CSc1nc(O)c(/C=C2\\C=Nc3ccccc32)[nH]1")
"> 100 µM"
>>> measurement("CCC(c1ccc(OC)cc1)C(CC)c1ccc(O)c(CN2CCCC2)c1 (centres undefined)")
"17.2 µM"
>>> measurement("COC(=O)c1ccc(CCc2cc(O)c(Br)cc2O)cc1")
"33.1 µM"
>>> measurement("Cc1cc(O)c(/C=N/c2nc(-c3cccc([N+](=O)[O-])c3)cs2)c(=O)o1")
"> 100 µM"
>>> measurement("COc1cc2ccnc3c2c(c1OC)CC1CC(O)C(OC)CC31 (centres undefined)")
"> 100 µM"
>>> measurement("S=P(c1ccccc1)(c1ccccc1)C1(C2(P(=S)(c3ccccc3)c3ccccc3)CC2)CC1")
"> 100 µM"
>>> measurement("COc1cc([C@@H]2c3cc4c(cc3[C@@H](NCc3ccc(C#N)cc3)C3COC(=O)[C@@H]32)OCO4)cc(OC)c1O (some centres undefined)")
"> 100 µM"
>>> measurement("CC(=O)O[C@H]1C(=O)[C@@]2(C)[C@H]([C@H](OC(=O)c3ccccc3)[C@]3(O)C[C@H](OC(=O)[C@H](O)[C@@H](NC(=O)CC(C)C)c4ccccc4)C(C)=C1C3(C)C)[C@]1(OC(C)=O)CO[C@@H]1C[C@@H]2O")
"> 10 µM"
